System: Factor 11 protein
test: Factor 11 protein in monkey plasma by sandwich ELISA (Example 45)
Assay type: in vivo, cynomolgus monkeys
setup conditions: day 50; escalating dose regimen; plasma ELISA
So I've got a bunch of substances here, and I need their Inhibition of Factor 11 protein relative to the PBS control values.
Only the number, expressed in %, is required.

For the substance ISIS 416864: MOE gapmer, nucleobases 1275 to 1318 of SEQ ID NO: 1 (Table 8) (antisense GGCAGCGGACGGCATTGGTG; MOE gapmer, wing and gap sizes not given here) , give its measured Inhibition of Factor 11 protein relative to the PBS control value.
10

For the substance ISIS 416850: MOE gapmer, nucleobases 1275 to 1318 of SEQ ID NO: 1 (Table 8) (antisense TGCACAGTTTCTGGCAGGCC; MOE gapmer, wing and gap sizes not given here) , give its measured Inhibition of Factor 11 protein relative to the PBS control value.
42

For the substance ISIS 416838: MOE gapmer, nucleobases 1018 to 1042 of SEQ ID NO: 1 (Table 6) (antisense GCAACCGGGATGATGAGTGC; MOE gapmer, wing and gap sizes not given here) , give its measured Inhibition of Factor 11 protein relative to the PBS control value.
8
